Let's go through some IC50 measurements on HEP4 (Homo sapiens) together.
Respond with the bare value in nM.

# count of solved cases: 3
[
  {
    "Molecule": "COC(=O)CSCCCS[C@H]1C(=O)C[C@@H](CO)[C@@H]1/C=C/C(O)Cc1ccccc1 (single isomer, unassigned) [drawing 43]",
    "System under test": "HEP4 (Homo sapiens)",
    "Display unit": "nM",
    "IC50": 1050
  },
  {
    "Molecule": "O=C(O)CSCCCS[C@H]1C(=O)C[C@@H](CO)[C@@H]1/C=C/C(O)CCc1ccc2ccccc2c1 (stereo partly shown) [Compound 141b]",
    "System under test": "HEP4 (Homo sapiens)",
    "Display unit": "nM",
    "IC50": 400
  },
  {
    "Molecule": "COC(=O)CSCCCS[C@H]1C(=O)CC[C@@H]1/C=C/C(C)(O)CCc1ccc2ccccc2c1 (stereo partly shown)",
    "System under test": "HEP4 (Homo sapiens)",
    "Display unit": "nM",
    "IC50": 500
  }
]

We now examine a further molecule.
// IC50 lookup, key: O=C(O)CSCCCS[C@H]1C(=O)CC[C@@H]1/C=C/C(O)CCc1cc2ccccc2s1 (stereo partly shown) [drawing 25] 44

---

Readings of EC50 for the listed compounds
biological target: hEP2/Gqs5 (Homo sapiens, UniProt P43116); experiment: FLIPR calcium signal, hEP2/Gqs5; details: HEK-293 (EBNA) cells, read-out: FUNCTIONAL EC50 HEP2
Sequence (P43116 whole entry): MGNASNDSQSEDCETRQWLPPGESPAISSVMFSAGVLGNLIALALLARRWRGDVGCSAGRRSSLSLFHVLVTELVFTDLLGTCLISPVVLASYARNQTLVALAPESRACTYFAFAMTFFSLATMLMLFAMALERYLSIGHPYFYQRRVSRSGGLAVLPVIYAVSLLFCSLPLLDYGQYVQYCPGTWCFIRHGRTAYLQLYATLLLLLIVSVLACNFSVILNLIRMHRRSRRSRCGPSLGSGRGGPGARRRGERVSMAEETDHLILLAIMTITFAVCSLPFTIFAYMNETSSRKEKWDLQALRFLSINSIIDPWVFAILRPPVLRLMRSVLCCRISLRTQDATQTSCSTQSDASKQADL

Example compounds with recorded EC50:
[
  {
    "Compound": "O=C(O)CSCCCS[C@H]1C(=O)CC[C@@H]1/C=C/C(O)Cc1csc2ccccc12 (single isomer, unassigned) [drawing 55]",
    "System under test": "hEP2/Gqs5 (Homo sapiens, UniProt P43116)",
    "EC50": "> 10 µM"
  },
  {
    "Compound": "CCCCC[C@H](O)/C=C/[C@H]1CCC(=O)[C@@H]1SCCCSCC(=O)O",
    "System under test": "hEP2/Gqs5 (Homo sapiens, UniProt P43116)",
    "EC50": "1.22 µM"
  }
]

# input for lookup
Item under review: O=C(O)CSCCCS[C@H]1C(=O)CC[C@@H]1/C=C/C(O)Cc1csc2ccccc12 (single isomer, unassigned) [drawing 56] . Reported EC50? > 10 µM

---

molecular target: UniProtKB P35408
Define the label as Condition met when IC50 is strictly less than 100 nM and as Condition not met in all remaining cases.

Use these answered entries as a reference point.
[
  {
    "Compound": "COC(=O)CSCCCS[C@H]1C(=O)CC[C@@H]1/C=C/C(O)CCc1ccc2ccccc2c1 (stereo partly shown) [drawing 34]",
    "Label value": "Condition not met"
  },
  {
    "Compound": "CC(O)(/C=C/[C@H]1CCC(=O)[C@@H]1SCCCSCC(=O)O)CCc1ccc2ccccc2c1 (single isomer, unassigned) [drawing 33]",
    "Label value": "Condition not met"
  },
  {
    "Compound": "O=C(O)CSCCCS[C@H]1C(=O)C[C@@H](CO)[C@@H]1/C=C/C(O)Cc1ccccc1 (single isomer, unassigned) [Compound 151]",
    "Label value": "Condition met"
  },
  {
    "Compound": "O=C(O)CSCCCS[C@H]1C(=O)C[C@@H](CO)[C@@H]1/C=C/C(O)Cc1ccccc1 (single isomer, unassigned) [drawing 50]",
    "Label value": "Condition not met"
  },
  {
    "Compound": "O=C(O)CSCCCS[C@H]1C(=O)CC[C@@H]1/C=C/C(O)CCc1ccc2ccccc2c1 (single isomer, unassigned) [Compound 153]",
    "Label value": "Condition not met"
  },
  {
    "Compound": "O=C(O)CSCCCS[C@H]1C(=O)CC[C@@H]1/C=C/C(O)Cc1csc2ccccc12 (single isomer, unassigned) [drawing 55]",
    "Label value": "Condition met"
  }
]

Answer whether the compound COC(=O)CSCCCS[C@H]1C(=O)C[C@@H](CO)[C@@H]1/C=C/C(O)CCc1cc2ccccc2s1 (stereo partly shown) [drawing 29] has IC50 strictly less than 100 nM Condition not met

---

Biological target: hEP3A/Gqi5 (Homo sapiens)
Construct: expressed in transfected cells; host or cells: HEK-293 (EBNA)
Sequence (P43115 1-390): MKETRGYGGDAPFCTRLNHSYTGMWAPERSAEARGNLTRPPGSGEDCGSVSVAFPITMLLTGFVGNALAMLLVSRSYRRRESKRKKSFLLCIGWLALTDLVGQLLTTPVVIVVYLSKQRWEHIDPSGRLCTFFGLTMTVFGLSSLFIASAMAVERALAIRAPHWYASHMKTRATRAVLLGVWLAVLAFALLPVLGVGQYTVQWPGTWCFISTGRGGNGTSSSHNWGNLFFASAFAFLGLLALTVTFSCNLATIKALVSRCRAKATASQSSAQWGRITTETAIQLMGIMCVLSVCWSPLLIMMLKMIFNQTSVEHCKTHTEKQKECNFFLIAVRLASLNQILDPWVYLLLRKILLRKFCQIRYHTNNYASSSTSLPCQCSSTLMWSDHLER
Assay: FLIPR calcium signal, hEP3A/Gqi5
Type: cell-based
Details: HEK-293 (EBNA) cells, read-out: FUNCTIONAL EC50 HEP3A
pEC50: −log10 of the molar value.
Readout: pEC50

These solved cases illustrate the format of a correct answer.
[
  {
    "Compound": "COC(=O)CSCCCS[C@H]1C(=O)CC[C@@H]1/C=C/C(O)Cc1ccccc1 (single isomer, unassigned) [drawing 46]",
    "System under test": "hEP3A/Gqi5 (Homo sapiens)",
    "Observed value": "< 5.00"
  },
  {
    "Compound": "CCCCC[C@H](O)/C=C/[C@H]1CCC(=O)[C@@H]1SCCCSCC(=O)O",
    "System under test": "hEP3A/Gqi5 (Homo sapiens)",
    "Observed value": 7.80
  }
]

Return reported pEC50; argument: O=C(O)CSCCCS[C@H]1C(=O)CC[C@@H]1/C=C/C(O)Cc1csc2ccccc12 (single isomer, unassigned) [drawing 56] < 5.00

---

target: HEP4 (Homo sapiens, UniProt P35408)
Sequence (P35408 whole entry): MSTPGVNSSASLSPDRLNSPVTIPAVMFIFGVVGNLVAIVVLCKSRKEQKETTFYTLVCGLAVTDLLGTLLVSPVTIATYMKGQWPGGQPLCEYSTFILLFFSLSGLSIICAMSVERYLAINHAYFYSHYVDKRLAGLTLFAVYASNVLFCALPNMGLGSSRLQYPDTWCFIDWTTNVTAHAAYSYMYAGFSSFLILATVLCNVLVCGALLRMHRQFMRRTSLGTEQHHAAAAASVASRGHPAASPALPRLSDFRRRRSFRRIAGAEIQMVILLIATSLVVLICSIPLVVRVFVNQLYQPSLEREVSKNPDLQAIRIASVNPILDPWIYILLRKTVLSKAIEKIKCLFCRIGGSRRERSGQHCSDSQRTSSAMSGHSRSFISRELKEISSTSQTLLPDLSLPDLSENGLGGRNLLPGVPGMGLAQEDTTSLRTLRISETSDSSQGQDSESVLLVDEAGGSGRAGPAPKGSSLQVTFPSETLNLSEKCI
Recorded IC50, one value per entry.

Example cases with answers are listed next.
[
  {
    "Compound": "COC(=O)CSCCCS[C@H]1C(=O)C[C@@H](CO)[C@@H]1/C=C/C(O)CCc1cc2ccccc2s1 (stereo partly shown) [drawing 30]",
    "Observed value": "1900 nM"
  },
  {
    "Compound": "COC(=O)CSCCCS[C@H]1C(=O)CC[C@@H]1/C=C/C(O)CCc1ccc2ccccc2c1 (stereo partly shown) [drawing 35]",
    "Observed value": "200 nM"
  },
  {
    "Compound": "O=C(O)CSCCCS[C@H]1C(=O)C[C@@H](CO)[C@@H]1/C=C/C(O)CCc1ccc2ccccc2c1 (stereo partly shown) [drawing 40]",
    "Observed value": "1000 nM"
  },
  {
    "Compound": "O=C(O)CSCCCS[C@H]1C(=O)CC[C@@H]1/C=C/C(O)Cc1ccccc1 (single isomer, unassigned) [drawing 48]",
    "Observed value": "11 nM"
  }
]

Name the reported IC50 value associated with the compound CC(O)(/C=C/[C@H]1CCC(=O)[C@@H]1SCCCSCC(=O)O)CCc1ccc2ccccc2c1 (single isomer, unassigned) [drawing 24] 96 nM

Query COC(=O)CSCCCS[C@H]1C(=O)CC[C@@H]1/C=C/C(O)Cc1ccccc1 (single isomer, unassigned) [drawing 45] next 141 nM

Now consider COC(=O)CSCCCS[C@H]1C(=O)CC[C@@H]1/C=C/C(O)Cc1ccccc1 (single isomer, unassigned) [drawing 46] and answer again. 19 nM

---

molecular target: hEP4/Gqs5 (Homo sapiens, UniProt P35408); assay: FLIPR calcium signal, hEP4/Gqs5; settings: HEK-293 (EBNA) cells, read-out: FUNCTIONAL EC50 HEP4
Definition: the class of an entry is the range in 1 = under 20 nM, 2 = from 20 nM up to 500 nM, 3 = 500 nM and over that contains its EC50.

Please review the entries below; each comes with its answer.
[
  {
    "Compound": "O=C(O)CSCCCS[C@H]1C(=O)C[C@@H](CO)[C@@H]1/C=C/C(O)CCc1ccc2ccccc2c1 (stereo partly shown) [Compound 141b]",
    "Label value": 2
  },
  {
    "Compound": "COC(=O)CSCCCS[C@H]1C(=O)C[C@@H](CO)[C@@H]1/C=C/C(O)CCc1ccc2ccccc2c1 (single isomer, unassigned) [drawing 39]",
    "Label value": 3
  },
  {
    "Compound": "COC(=O)CSCCCS[C@H]1C(=O)C[C@@H](CO)[C@@H]1/C=C/C(O)CCc1ccc2ccccc2c1 (single isomer, unassigned) [drawing 38]",
    "Label value": 3
  },
  {
    "Compound": "O=C(O)CSCCCS[C@H]1C(=O)C[C@@H](CO)[C@@H]1/C=C/C(O)Cc1ccccc1 (single isomer, unassigned) [drawing 50]",
    "Label value": 2
  }
]

GET /class?item= O=C(O)CSCCCS[C@H]1C(=O)CC[C@@H]1/C=C/C(O)CCc1ccc2ccccc2c1 (single isomer, unassigned) [drawing 36] 1

Data origin: patent US7183324B2
